All values here come from ChEMBL document CHEMBL3603773.

# target.or.test.system: Acetylcholinesterase (Homo sapiens)
pIC50: −log10 of the molar value.
So basically: pIC50 at 4 or higher? That is Criterion met. Lower than 4? That is Criterion not met.

substance.smiles: Cc1ccccc1-c1nnc(-c2ccc3c(c2)CO[C@@]3(CCCN(C)C)c2ccc(F)cc2)[nH]1
label.value: Criterion met
--
substance.smiles: CN(C)CCC[C@@]1(c2ccc(F)cc2)OCc2cc(-c3nnc(-c4cccc(N)c4)[nH]3)ccc21
label.value: Criterion not met
--
substance.smiles: Cc1cccc(-c2nnc(-c3ccc4c(c3)CO[C@@]4(CCCN(C)C)c3ccc(F)cc3)[nH]2)c1
label.value: Criterion not met
--
substance.smiles: COc1ccccc1-c1nnc(-c2ccc3c(c2)CO[C@@]3(CCCN(C)C)c2ccc(F)cc2)[nH]1
label.value: Criterion not met
--
substance.smiles: CN(C)CCC[C@@]1(c2ccc(F)cc2)OCc2cc(-c3nnc(-c4ccccc4N)[nH]3)ccc21
label.value: Criterion not met
--
substance.smiles: CN(C)CCC[C@@]1(c2ccc(F)cc2)OCc2cc(-c3nnc(-c4ccc(Cl)cc4)[nH]3)ccc21
label.value: Criterion met
--
substance.smiles: CN(C)CCC[C@@]1(c2ccc(F)cc2)OCc2cc(-c3nnc(-c4ccccc4)[nH]3)ccc21
label.value: Criterion not met
--
substance.smiles: CN(C)CCC[C@@]1(c2ccc(F)cc2)OCc2cc(-c3nnc(-c4ccccc4I)[nH]3)ccc21
label.value: Criterion not met

----------
# IC50 measurements, system: Cholinesterase (Homo sapiens)
parameter: IC50 (µM)

substance.smiles: Cc1cccc(-c2nnc(-c3ccc4c(c3)CO[C@@]4(CCCN(C)C)c3ccc(F)cc3)[nH]2)c1
parameter: IC50
experimental.value: 89.2
//
substance.smiles: CN(C)CCC[C@@]1(c2ccc(F)cc2)OCc2cc(-c3nnc(-c4cccc(N)c4)[nH]3)ccc21
parameter: IC50
experimental.value: 188
//
substance.smiles: CN(C)CCC[C@@]1(c2ccc(F)cc2)OCc2cc(-c3nnc(-c4ccccc4[N+](=O)[O-])[nH]3)ccc21
parameter: IC50
experimental.value: 297

----------
# target.or.test.system: Cholinesterases; ACHE & BCHE (Homo sapiens) (UniProt P06276+P22303)
# Sequence (P06276 whole entry, looked up): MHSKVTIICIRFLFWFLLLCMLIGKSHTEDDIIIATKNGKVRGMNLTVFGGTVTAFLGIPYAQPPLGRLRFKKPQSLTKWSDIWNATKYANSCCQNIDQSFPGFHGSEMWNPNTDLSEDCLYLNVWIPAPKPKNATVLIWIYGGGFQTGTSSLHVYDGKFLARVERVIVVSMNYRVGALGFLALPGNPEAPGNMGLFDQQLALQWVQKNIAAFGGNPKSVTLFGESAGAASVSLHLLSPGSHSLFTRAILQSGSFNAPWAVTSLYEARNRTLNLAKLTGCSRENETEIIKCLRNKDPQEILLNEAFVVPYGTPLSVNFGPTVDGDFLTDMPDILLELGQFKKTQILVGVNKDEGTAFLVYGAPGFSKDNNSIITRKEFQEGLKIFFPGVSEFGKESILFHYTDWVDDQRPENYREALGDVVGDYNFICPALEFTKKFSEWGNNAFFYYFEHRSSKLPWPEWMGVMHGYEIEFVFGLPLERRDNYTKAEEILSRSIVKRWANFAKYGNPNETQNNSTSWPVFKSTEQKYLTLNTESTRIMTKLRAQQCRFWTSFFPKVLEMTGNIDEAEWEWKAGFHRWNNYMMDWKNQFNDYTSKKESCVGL
# Sequence (P22303 whole entry, looked up): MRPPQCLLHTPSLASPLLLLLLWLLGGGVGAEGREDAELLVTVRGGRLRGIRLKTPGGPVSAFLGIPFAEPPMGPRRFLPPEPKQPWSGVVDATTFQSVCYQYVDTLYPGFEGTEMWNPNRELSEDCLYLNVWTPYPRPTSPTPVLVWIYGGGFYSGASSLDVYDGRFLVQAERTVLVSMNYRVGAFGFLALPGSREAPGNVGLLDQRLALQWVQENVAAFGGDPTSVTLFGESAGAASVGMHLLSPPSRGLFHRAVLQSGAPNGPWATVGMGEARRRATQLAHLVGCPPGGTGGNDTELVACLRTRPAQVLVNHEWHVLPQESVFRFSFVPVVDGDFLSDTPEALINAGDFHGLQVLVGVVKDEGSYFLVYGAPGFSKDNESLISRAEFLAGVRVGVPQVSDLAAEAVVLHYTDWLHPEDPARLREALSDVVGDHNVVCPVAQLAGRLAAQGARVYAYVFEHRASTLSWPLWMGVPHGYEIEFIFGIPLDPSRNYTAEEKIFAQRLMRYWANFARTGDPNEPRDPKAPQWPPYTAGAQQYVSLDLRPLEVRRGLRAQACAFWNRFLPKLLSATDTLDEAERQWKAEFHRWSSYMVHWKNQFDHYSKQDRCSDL
# experiment.summary: Selectivity ratio of IC50 for AChE (unknown origin) to IC50 for BChE (unknown origin)
# label = bin(measured Ratio IC50), where bins are class A (below 1), class B (1 to below 20), class C (20 or more)

substance.smiles: CN(C)CCC[C@@]1(c2ccc(F)cc2)OCc2cc(-c3nnc(-c4cccc([N+](=O)[O-])c4)[nH]3)ccc21
label.value: class B
//
substance.smiles: CN(C)CCC[C@@]1(c2ccc(F)cc2)OCc2cc(-c3nnc(-c4ccccc4I)[nH]3)ccc21
label.value: class B
//
substance.smiles: CN(C)CCC[C@@]1(c2ccc(F)cc2)OCc2cc(-c3nnc(-c4cccc(Cl)c4)[nH]3)ccc21
label.value: class B
//
substance.smiles: CN(C)CCC[C@@]1(c2ccc(F)cc2)OCc2cc(-c3nnc(-c4ccc(F)cc4)[nH]3)ccc21
label.value: class C
//
substance.smiles: CN(C)CCC[C@@]1(c2ccc(F)cc2)OCc2cc(-c3nnc(-c4ccccc4F)[nH]3)ccc21
label.value: class C
//
substance.smiles: CN(C)CCC[C@@]1(c2ccc(F)cc2)OCc2cc(-c3nnc(-c4ccc(Cl)cc4)[nH]3)ccc21
label.value: class A
//
substance.smiles: Cc1cccc(-c2nnc(-c3ccc4c(c3)CO[C@@]4(CCCN(C)C)c3ccc(F)cc3)[nH]2)c1
label.value: class B
//
substance.smiles: Cc1ccccc1-c1nnc(-c2ccc3c(c2)CO[C@@]3(CCCN(C)C)c2ccc(F)cc2)[nH]1
label.value: class A
//
substance.smiles: COc1cccc(-c2nnc(-c3ccc4c(c3)CO[C@@]4(CCCN(C)C)c3ccc(F)cc3)[nH]2)c1
label.value: class B

----------
# target.or.test.system: Cholinesterase (Homo sapiens, UniProt P06276)
# Sequence (P06276 whole entry): as the sequence (P06276 whole entry, looked up) above
# experiment.summary: Inhibition of BChE (unknown origin) using butyrylthiocholine chloride as substrate at 0.5 mM preincubated for 30 mins before substrate addition measured after 30 mins by Ellman method relative to control

substance.smiles: CN(C)CCC[C@@]1(c2ccc(F)cc2)OCc2cc(-c3nnc(-c4cccc([N+](=O)[O-])c4)[nH]3)ccc21
inhibition (%): 79.2
//
substance.smiles: CN(C)CCC[C@@]1(c2ccc(F)cc2)OCc2cc(-c3nnc(-c4cccc(Cl)c4)[nH]3)ccc21
inhibition (%): 79.9
//
substance.smiles: CN(C)CCC[C@@]1(c2ccc(F)cc2)OCc2cc(-c3nnc(-c4ccc(F)cc4)[nH]3)ccc21
inhibition (%): 92.5
//
substance.smiles: CN(C)CCC[C@@]1(c2ccc(F)cc2)OCc2cc(-c3nnc(-c4ccccc4O)[nH]3)ccc21
inhibition (%): 80.7
//
substance.smiles: CN(C)CCC[C@@]1(c2ccc(F)cc2)OCc2cc(-c3nnc(-c4ccc(Cl)cc4)[nH]3)ccc21
inhibition (%): 73.7
//
substance.smiles: CN(C)CCC[C@@]1(c2ccc(F)cc2)OCc2cc(-c3nnc(-c4cccc(Br)c4)[nH]3)ccc21
inhibition (%): 85.5
//
substance.smiles: CN(C)CCC[C@@]1(c2ccc(F)cc2)OCc2cc(-c3nnc(-c4ccc(Br)cc4)[nH]3)ccc21
inhibition (%): 50.6
//
substance.smiles: CN(C)CCC[C@@]1(c2ccc(F)cc2)OCc2cc(-c3nnc(-c4ccc(O)cc4)[nH]3)ccc21
inhibition (%): 78.7
//
substance.smiles: CN(C)CCC[C@@]1(c2ccc(F)cc2)OCc2cc(-c3nnc(-c4ccccc4N)[nH]3)ccc21
inhibition (%): 71.7
//
substance.smiles: CN(C)CCC[C@@]1(c2ccc(F)cc2)OCc2cc(-c3nnc(-c4ccccc4I)[nH]3)ccc21
inhibition (%): 84.5

----------
// Ratio IC50 lookup, one value per entry
# target.or.test.system: Cholinesterases; ACHE & BCHE (Homo sapiens) (UniProt P06276+P22303)
# experiment.summary: Selectivity ratio of IC50 for AChE (unknown origin) to IC50 for BChE (unknown origin)

substance.smiles: CN(C)CCC[C@@]1(c2ccc(F)cc2)OCc2cc(-c3nnc(-c4cccc(I)c4)[nH]3)ccc21
relational.operator: >
Ratio IC50: 2.67
//
substance.smiles: CN(C)CCC[C@@]1(c2ccc(F)cc2)OCc2cc(-c3nnc(-c4ccc(O)cc4)[nH]3)ccc21
relational.operator: =
Ratio IC50: 2.76
//
substance.smiles: CN(C)CCC[C@@]1(c2ccc(F)cc2)OCc2cc(-c3nnc(-c4ccccc4N)[nH]3)ccc21
relational.operator: =
Ratio IC50: 3.25
//
substance.smiles: CN(C)CCC[C@@]1(c2ccc(F)cc2)OCc2cc(-c3nnc(-c4cccc(F)c4)[nH]3)ccc21
relational.operator: <
Ratio IC50: 11.2

----------
# target.or.test.system: Acetylcholinesterase (Homo sapiens, UniProt P22303)
# Sequence (P22303 whole entry): as the sequence (P22303 whole entry, looked up) above
# experiment.summary: Inhibition of AChE (unknown origin) using acetylthiocholine iodide as substrate at 0.5 mM preincubated for 30 mins before substrate addition measured after 30 mins by Ellman method relative to control
// inhibition lookup, one value per entry

substance.smiles: CN(C)CCC[C@@]1(c2ccc(F)cc2)OCc2cc(-c3nnc(-c4cccc(Cl)c4)[nH]3)ccc21
target.or.test.system: Acetylcholinesterase (Homo sapiens, UniProt P22303)
inhibition: 57.4%

substance.smiles: CN(C)CCC[C@@]1(c2ccc(F)cc2)OCc2cc(-c3nnc(-c4ccc(Cl)cc4)[nH]3)ccc21
target.or.test.system: Acetylcholinesterase (Homo sapiens, UniProt P22303)
inhibition: 91.6%

substance.smiles: CN(C)CCC[C@@]1(c2ccc(F)cc2)OCc2cc(-c3nnc(-c4ccccc4I)[nH]3)ccc21
target.or.test.system: Acetylcholinesterase (Homo sapiens, UniProt P22303)
inhibition: 72.3%

substance.smiles: CN(C)CCC[C@@]1(c2ccc(F)cc2)OCc2cc(-c3nnc(-c4ccc(N)cc4)[nH]3)ccc21
target.or.test.system: Acetylcholinesterase (Homo sapiens, UniProt P22303)
inhibition: 15.3%

substance.smiles: CN(C)CCC[C@@]1(c2ccc(F)cc2)OCc2cc(-c3nnc(-c4cccc(N)c4)[nH]3)ccc21
target.or.test.system: Acetylcholinesterase (Homo sapiens, UniProt P22303)
inhibition: 29.9%

substance.smiles: CN(C)CCC[C@@]1(c2ccc(F)cc2)OCc2cc(-c3nnc(-c4ccc(Br)cc4)[nH]3)ccc21
target.or.test.system: Acetylcholinesterase (Homo sapiens, UniProt P22303)
inhibition: 15.6%

substance.smiles: CN(C)CCC[C@@]1(c2ccc(F)cc2)OCc2cc(-c3nnc(-c4ccccc4[N+](=O)[O-])[nH]3)ccc21
target.or.test.system: Acetylcholinesterase (Homo sapiens, UniProt P22303)
inhibition: 5.09%

substance.smiles: COc1ccc(-c2nnc(-c3ccc4c(c3)CO[C@@]4(CCCN(C)C)c3ccc(F)cc3)[nH]2)cc1
target.or.test.system: Acetylcholinesterase (Homo sapiens, UniProt P22303)
inhibition: 10.3%

----------
# target.or.test.system: Acetylcholinesterase (Homo sapiens, UniProt P22303)
# experiment.summary: Inhibition of AChE (unknown origin) using acetylthiocholine iodide as substrate at 0.5 mM preincubated for 30 mins before substrate addition measured after 30 mins by Ellman method relative to control
// inhibition lookup, one value per entry
parameter: inhibition

substance.smiles: CN(C)CCC[C@@]1(c2ccc(F)cc2)OCc2cc(-c3nnc(-c4ccccc4O)[nH]3)ccc21
parameter: inhibition
experimental.value: 16.3%
//
substance.smiles: CN(C)CCC[C@@]1(c2ccc(F)cc2)OCc2cc(-c3nnc(-c4ccc(O)cc4)[nH]3)ccc21
parameter: inhibition
experimental.value: 59.2%
//
substance.smiles: Cc1cccc(-c2nnc(-c3ccc4c(c3)CO[C@@]4(CCCN(C)C)c3ccc(F)cc3)[nH]2)c1
parameter: inhibition
experimental.value: 88.1%
//
substance.smiles: CN(C)CCC[C@@]1(c2ccc(F)cc2)OCc2cc(-c3nnc(-c4cccc(I)c4)[nH]3)ccc21
parameter: inhibition
experimental.value: 25.1%
//
substance.smiles: CN(C)CCC[C@@]1(c2ccc(F)cc2)OCc2cc(-c3nnc(-c4ccccc4)[nH]3)ccc21
parameter: inhibition
experimental.value: 30.4%
//
substance.smiles: COc1cc(-c2nnc(-c3ccc4c(c3)CO[C@@]4(CCCN(C)C)c3ccc(F)cc3)[nH]2)ccc1O
parameter: inhibition
experimental.value: 34.8%
//
substance.smiles: Cc1ccccc1-c1nnc(-c2ccc3c(c2)CO[C@@]3(CCCN(C)C)c2ccc(F)cc2)[nH]1
parameter: inhibition
experimental.value: 88.6%
//
substance.smiles: Cc1ccc(-c2nnc(-c3ccc4c(c3)CO[C@@]4(CCCN(C)C)c3ccc(F)cc3)[nH]2)cc1
parameter: inhibition
experimental.value: 16%
